B1: C10orf62 (parent)
chain: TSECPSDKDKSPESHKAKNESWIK

variants of: B1; experiment: protein stability index of a GFP-peptide fusion (GPS, HEK-293T) (PSI 1-6); higher = more stable; conditions: c terminus: a fixed tail appended;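 also: lentivirally expressed fusions sorted by FACS into six bins by GFP to DsRed ratio, PSI derived from sequencing read proportions per bin multiplied by bin number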
propertyLabel: protein stability index
Answer field: number only, no words.

What value of protein stability index has been recorded for this entry: N19G
3.92

What value of protein stability index has been recorded for this entry: N19S
3.97

What value of protein stability index has been recorded for this entry: K24T
3.18

What value of protein stability index has been recorded for this entry: T1W
2.28

What value of protein stability index has been recorded for this entry: I23E
3.96

What value of protein stability index has been recorded for this entry: D9K
2.25

What value of protein stability index has been recorded for this entry: E3A
2.94

What value of protein stability index has been recorded for this entry: P5Q
3.32

What value of protein stability index has been recorded for this entry: D9T
3.34

What value of protein stability index has been recorded for this entry: P5C
2.8

What value of protein stability index has been recorded for this entry: S11C
3.31

What value of protein stability index has been recorded for this entry: S21V
4.47

What value of protein stability index has been recorded for this entry: S2M
3.17

What value of protein stability index has been recorded for this entry: E3T
3.27

What value of protein stability index has been recorded for this entry: P5H
3.75

What value of protein stability index has been recorded for this entry: K16H
3.8

What value of protein stability index has been recorded for this entry: K10R
2.81

What value of protein stability index has been recorded for this entry: H15W
3.33

meta.source: the supplement of paper PMC10567573
